tested on: U2OS; test: Incucyte cell viability with U2OS; format: toxicity, cell-based; settings: human, 24 h, 10 µM, compound concentration 10 uM, replicate number 1; note: unitless GR value; below 1 slowed growth and below 0 cell loss
Binary label based on Growth Rate with cut-off 0.9: below gives met, not below gives not met.

Examples with answers:
State whether 0.9 exceeds Growth Rate recorded for CC(C)(O)CNC(=O)N1C(=O)N(c2cccc(C(F)(F)F)c2)C2=C(C(=O)CC2)[C@H]1c1ccc(C#N)cc1 .
met

State whether 0.9 exceeds Growth Rate recorded for C=CC(=O)Nc1ccc2[nH]c(=O)n(C3CCN(Cc4ccc(-c5ccc6c(c5)NC(=O)CO6)cc4)CC3)c2c1 .
not met

State whether 0.9 exceeds Growth Rate recorded for COc1cc(C(=O)NC2CCN(C)CC2)ccc1Nc1ncc2c(n1)N(C1CCCC1)CC(F)(F)C(=O)N2C .
met

State whether 0.9 exceeds Growth Rate recorded for CC(C)(C)OC(=O)CN(Cc1ccc(Cl)cc1)Cc1ccc([N+](=O)[O-])s1 .
not met

State whether 0.9 exceeds Growth Rate recorded for CCNc1ccc(-c2nn(-c3ccccc3C)c3c2C(C)Cc2nc(NC(=O)OC)sc2-3)cn1.O=C(O)C(F)(F)F (stereo unspecified) .
met

State whether 0.9 exceeds Growth Rate recorded for Cc1cn([C@@H](C)CC#N)c(=O)c2cc(Cn3nc(C(F)F)cc3Cl)nn12 .
met

State whether 0.9 exceeds Growth Rate recorded for Cn1cnc(Cn2ccc3ccc(CNCc4[nH]c5ccccc5c4[C@@H]4NC(=O)c5ccc(O)cc54)cc32)c1 .
not met

State whether 0.9 exceeds Growth Rate recorded for CC(Sc1nc2c(cnn2-c2cccc(Cl)c2)c(=O)[nH]1)C(N)=O (stereo unspecified) .
met

Next:
State whether 0.9 exceeds Growth Rate recorded for COc1ccc(N(C(=O)Nc2c(C)cccc2C)c2cc(Nc3ccc(N4CCN(C)CC4)cc3)ncn2)c(OC)c1 .
met

---

test system: Fibroblast; assay: Incucyte cell viability with human fibroblast; assay type: toxicity, cell-based; settings: 12 h, 10 µM, compound concentration 10 uM, replicate number 2; note: unitless GR value; below 1 slowed growth and below 0 cell loss
Growth Rate by entry:
Please state the value as a number alone, without comment.

Per the records, this compound ( Fc1ccc(-c2c3cccc(C(F)(F)F)c3nn2Cc2ccc(F)cc2Cl)cc1 ) has Growth Rate equal to 0.12

Per the records, this compound ( Cc1c(CCC(=O)O)cccc1NC(=O)[C@@H](c1ccc(-c2cncc(Cl)c2)c(F)c1)C1CCCC1 ) has Growth Rate equal to 0.3

Per the records, this compound ( CCCCCCCC/C=C\CCCCCCCC(=O)NCc1ccc(O)c(OC)c1 ) has Growth Rate equal to 0.83

Per the records, this compound ( CC(Oc1cc(-c2cnn(C3CCNCC3)c2)cnc1N)c1c(Cl)ccc(F)c1Cl (centres undefined) ) has Growth Rate equal to -0.64

Per the records, this compound ( CN(C)C(=O)Cn1cc(-c2ccc(-c3cncc4ccccc34)cc2)cn1 ) has Growth Rate equal to 0.98

Per the records, this compound ( Cl.Cl.Fc1ccc([C@@H]2CCNC[C@H]2COc2ccc3c(c2)OCO3)cc1.Fc1ccc([C@@H]2CCNC[C@H]2COc2ccc3c(c2)OCO3)cc1.O [PAROXETINE HYDROCHLORIDE] ) has Growth Rate equal to 0.54

Per the records, this compound ( CC(=O)O.Cc1cc2c(ncn2C2(C)CN(C(=O)c3ccn(CC4CCN([C@H]5C=CCCCC5)CC4)c3)C2)c(N)n1 ) has Growth Rate equal to 0.83

Per the records, this compound ( Oc1cc2c(cc1O)CN(C(=S)NCCc1ccc(Cl)cc1)CCC2 [CAPSAZEPINE] ) has Growth Rate equal to -0.04

# context switch: different compound, same Growth Rate
Per the records, this compound ( O=C(O)c1cc(-c2ccccc2)ccc1O ) has Growth Rate equal to 0.44

---

system: HEK-293T; assay: Incucyte cell viability with HEK293T; format: toxicity, cell-based; settings: human, 18 h, 10 µM, compound concentration 10 uM, replicate number 2; note: unitless GR value; below 1 slowed growth and below 0 cell loss
Growth Rate by entry:
Please state the value as a number alone, without comment.

Some solved entries appear below for comparison.
Per the records, this molecule ( Cl.NC(=O)c1ccccc1Nc1nc(-c2ccc(N3CCOCC3)cc2)cc2ncccc12 ) has Growth Rate equal to -0.24

Per the records, this molecule ( COC1(C#Cc2ccc(Cl)c(-c3ncc4c(n3)-c3sc(NC(C)=O)nc3CC4)c2)CCN(C)CC1 ) has Growth Rate equal to -0.1

Per the records, this molecule ( Cc1cc(OC2CCS(=O)(=O)CC2)cc(C)c1-c1cccc(COc2ccc(C(=O)O)c(F)c2)c1 ) has Growth Rate equal to 0.88

Next:
Per the records, this molecule ( Cc1cc(Nc2ncc(Cl)c(Nc3ccccc3S(=O)(=O)C(C)C)n2)c(OC(C)C)cc1C1CCNCC1 ) has Growth Rate equal to -0.35

Per the records, this molecule ( CN1CCN(c2ccc(-n3cc(-c4ccncc4OCC4CCNCC4)cn3)cc2)CC1 ) has Growth Rate equal to 0.13

Per the records, this molecule ( CCc1nc(C2CCC2)n2nc(-c3ccccc3)[nH]c(=O)c12 ) has Growth Rate equal to 0.76

Per the records, this molecule ( O=C1NCc2ccc3c(-c4cccc(Cl)c4)c[nH]c3c21 ) has Growth Rate equal to -0.13

Per the records, this molecule ( COc1ccc(CCCN2CCC(COC(c3ccccc3)c3ccccc3)CC2)cc1.Cl ) has Growth Rate equal to 0.26

Per the records, this molecule ( CC(C)(C)c1cc(NC(=O)c2csc(Nc3ccccn3)n2)no1 ) has Growth Rate equal to 0.01

Per the records, this molecule ( N[C@@H]1CCCC[C@H]1Oc1ccc2ncc(-c3cc4ccccc4o3)n2n1 ) has Growth Rate equal to -0.63

Per the records, this molecule ( CCN(CC)C/C=C/C(=O)Nc1cc2c(Nc3ccc(F)c(Cl)c3)ncnc2cc1OCC1CC1 ) has Growth Rate equal to -0.35

Per the records, this molecule ( CN(C)CCCN1c2ccccc2Sc2ccc(Cl)cc21.Cl [CHLORPROMAZINE HYDROCHLORIDE] ) has Growth Rate equal to 0.37

Per the records, this molecule ( CNCc1ccc(-c2cc(-c3nc(-c4ccc(S(=O)(=O)C(C)C)cc4)cnc3N)on2)cc1 ) has Growth Rate equal to -0.38

Per the records, this molecule ( COc1cc(-c2cn(C)c(=O)c3cnccc23)cc(OC)c1CN(C)C ) has Growth Rate equal to 0.89

Per the records, this molecule ( Cc1c(NC(=O)c2cccn(-c3ccc(F)cc3)c2=O)ccc(Oc2ccnc(NC(=O)C3CC3)c2)c1C ) has Growth Rate equal to 0.94

Per the records, this molecule ( N[C@@H](CC(=O)O)Cn1nnc(-c2ccc(Oc3ncc(Cl)cc3F)cc2)n1 ) has Growth Rate equal to 0.72

---

Growth Rate by entry:
tested on: U2OS; experiment: Incucyte cell viability with U2OS; type: toxicity, cell-based; details: human, 0 h, 10 µM, compound concentration 10 uM, replicate number 1; note: unitless GR value; below 1 slowed growth and below 0 cell loss

Measured Growth Rate (U2OS), entry Cn1cc(NC(=O)c2ccc3nc4n(c3c2)CCCNC4=O)nc1C(=O)NC1CCCC1 : 0.36

Measured Growth Rate (U2OS), entry CC1CN(CC(=O)N2CC(C)(C)c3nc(CO)c(Cc4ccc(F)cc4)cc32)C(CN2CCOCC2C)CN1 (centres undefined) : -0.23

Measured Growth Rate (U2OS), entry CC(=O)O.Cc1cc2c(ncn2C2(C)CN(C(=O)c3ccn(CC4CCN([C@H]5C=CCCCC5)CC4)c3)C2)c(N)n1 : 0.51

Measured Growth Rate (U2OS), entry CN[C@@H]1CC[C@@H](c2ccc(Cl)c(Cl)c2)c2ccccc21.Cl : -0.9

Next:
Measured Growth Rate (U2OS), entry CN[C@@H](C)C/C=C/c1cncc(OC(C)C)c1 : -0.66

Measured Growth Rate (U2OS), entry O=C(NCC1(N2CCN(c3ccccc3)CC2)CCOCC1)c1cccnc1Sc1ccccc1 : 0.14

Measured Growth Rate (U2OS), entry CC(C)Oc1ccc(Cc2ccc(NC3=NCCN3)cc2)cc1 : 0.6

Measured Growth Rate (U2OS), entry O=C(NNC(=O)c1ccc(CNS(=O)(=O)c2ccc(F)c(Cl)c2)cc1)c1ccccc1 : 0.67

Measured Growth Rate (U2OS), entry CN(C)[C@H]1CCN(c2cc(C(F)(F)F)c(C#N)c(Nc3cccc(CCC(=O)O)c3)n2)C1.O=C(O)C(F)(F)F : 0.61

---

tested on: HEK-293T; assay: Incucyte cell viability with HEK293T; type: toxicity, cell-based; conditions: human, 24 h, 10 µM, compound concentration 10 uM, replicate number 2; note: unitless GR value; below 1 slowed growth and below 0 cell loss
Growth Rate by entry:

Some solved entries appear below for comparison.
Per the records, this molecule ( Cc1nc2c(cc1F)c(-c1nnc3c(n1)NC(=O)C3(C)C)nn2Cc1cccc(F)c1F ) has Growth Rate equal to 0.91

Per the records, this molecule ( C=CC[C@@H]1/C=C(\C)C[C@H](C)C[C@H](OC)[C@H]2O[C@@](O)(C(=O)C(=O)N3CCCC[C@H]3C(=O)O[C@H](/C(C)=C/[C@@H]3CC[C@@H](O)[C@H](OC)C3)[C@H](C)[C@@H](O)CC1=O)[C@H](C)C[C@@H]2OC.O [TACROLIMUS] ) has Growth Rate equal to 0.99

Per the records, this molecule ( CN(C)CCCn1cc(C2=C(c3c[nH]c4ccccc34)C(=O)NC2=O)c2ccccc21 [GF-109203] ) has Growth Rate equal to 0.98

Per the records, this molecule ( Cc1ccc(S(=O)(=O)Nc2ccc(-n3nc(C(F)(F)F)cc3C(F)(F)F)cc2)cc1 ) has Growth Rate equal to 0.92

Per the records, this molecule ( OCC1OC(n2cnc3cc(Cl)c(Cl)cc32)C(O)C1O (stereo unspecified) ) has Growth Rate equal to 0.82

Per the records, this molecule ( COc1ccc(CCN(C)CCCC(C#N)(c2cc(OC)c(OC)c(OC)c2)C(C)C)cc1OC.Cl (stereo unspecified) [GALLOPAMIL HYDROCHLORIDE] ) has Growth Rate equal to 0.94

Per the records, this molecule ( CN[C@@H](C)C(=O)N[C@H](C(=O)N1CCC[C@H]1C(=O)Nc1snnc1-c1ccccc1)C1CCCCC1 [GDC-0152] ) has Growth Rate equal to 0.07

Per the records, this molecule ( Cc1nnsc1C(=O)Nc1ccc(-n2nc(C(F)(F)F)cc2C(F)(F)F)cc1 ) has Growth Rate equal to 0.42

Per the records, this molecule ( CN(C)Cc1cccc(NC(=C2C(=O)Nc3cc(C(=O)N(C)C)ccc32)c2ccccc2)c1 ) has Growth Rate equal to 0.95

Per the records, this molecule ( CC(C)(C#Cc1ccc(NC(=O)COc2ccccc2C(=O)c2ccccc2)c(Cl)c1)C(=O)O [BI 2439] ) has Growth Rate equal to 0.69

Next:
Per the records, this molecule ( Cc1cccc(-c2nn3c(c2-c2ccnc4ccc(C(N)=O)cc24)CCC3)n1 [GALUNISERTIB] ) has Growth Rate equal to 0.8

Per the records, this molecule ( O=C(CNC(=O)c1ccc(-c2ccccc2)cc1)NC1CCCc2ccccc21 (stereo unspecified) ) has Growth Rate equal to 0.46

Per the records, this molecule ( COc1ccc([C@@H]2Sc3ccccc3N(CCN(C)C)C(=O)[C@@H]2OC(C)=O)cc1.Cl [DILTIAZEM HYDROCHLORIDE] ) has Growth Rate equal to 0.86

Per the records, this molecule ( c1ccc2c(-c3coc4cc(-c5ccc(N6CCNCC6)cc5)cnc34)ccnc2c1 ) has Growth Rate equal to -0.33

Per the records, this molecule ( CCC(=O)O[C@@H](OP(=O)(CCCCc1ccccc1)CC(=O)N1C[C@H](C2CCCCC2)C[C@H]1C(=O)[O-])C(C)C.[Na+] (stereo partly specified) ) has Growth Rate equal to 0.49

Per the records, this molecule ( O=c1cc(-c2cc(F)c(Cl)nc2Cl)[nH]c2c(-c3ccccc3)c(C(F)(F)F)nn12 ) has Growth Rate equal to 0.94

// provenance: ChEMBL document CHEMBL5303304
